# Target: human mGlu5a receptor (Homo sapiens, UniProt P41594)
# Construct: expressed in transfected cells
# Sequence (P41594 21-1180 isoform P41594-2 limits assumed): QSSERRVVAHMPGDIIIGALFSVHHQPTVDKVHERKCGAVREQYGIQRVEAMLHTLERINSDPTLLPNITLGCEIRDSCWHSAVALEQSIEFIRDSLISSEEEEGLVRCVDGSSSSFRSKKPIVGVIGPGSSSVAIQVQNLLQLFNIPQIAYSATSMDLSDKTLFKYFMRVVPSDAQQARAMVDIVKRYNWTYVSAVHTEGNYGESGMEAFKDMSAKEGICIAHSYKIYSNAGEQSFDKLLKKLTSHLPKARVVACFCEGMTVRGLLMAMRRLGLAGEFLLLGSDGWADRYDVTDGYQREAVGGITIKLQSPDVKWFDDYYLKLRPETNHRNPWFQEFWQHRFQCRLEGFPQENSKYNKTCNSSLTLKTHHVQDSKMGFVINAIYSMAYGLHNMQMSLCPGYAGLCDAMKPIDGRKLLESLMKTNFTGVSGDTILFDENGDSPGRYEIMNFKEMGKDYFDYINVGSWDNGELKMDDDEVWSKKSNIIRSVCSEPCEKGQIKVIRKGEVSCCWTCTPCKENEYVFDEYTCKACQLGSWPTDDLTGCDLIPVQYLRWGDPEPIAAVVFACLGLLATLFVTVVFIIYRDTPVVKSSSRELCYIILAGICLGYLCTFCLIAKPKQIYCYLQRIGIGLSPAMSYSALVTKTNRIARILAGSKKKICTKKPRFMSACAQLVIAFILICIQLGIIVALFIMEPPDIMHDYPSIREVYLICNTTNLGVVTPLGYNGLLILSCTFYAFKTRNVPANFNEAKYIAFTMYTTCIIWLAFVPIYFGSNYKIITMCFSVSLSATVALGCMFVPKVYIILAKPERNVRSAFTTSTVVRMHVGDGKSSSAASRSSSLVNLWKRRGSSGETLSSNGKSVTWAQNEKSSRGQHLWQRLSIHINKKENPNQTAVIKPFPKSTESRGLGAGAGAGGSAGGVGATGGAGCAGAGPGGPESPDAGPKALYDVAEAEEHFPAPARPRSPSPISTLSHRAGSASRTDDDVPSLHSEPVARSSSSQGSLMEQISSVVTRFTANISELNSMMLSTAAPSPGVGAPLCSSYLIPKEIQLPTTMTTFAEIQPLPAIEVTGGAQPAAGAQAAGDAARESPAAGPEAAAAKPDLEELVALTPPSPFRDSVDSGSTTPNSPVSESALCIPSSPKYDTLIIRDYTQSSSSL
# Experimental Details: Intracellular Ca2+ mobilization assay (mGlu5 PAM)
# Type: cell-based
# Particulars: maximal response in % of the maximal stimulatory effect obtained with saturating concentrations of L-glutamate; read-out: Eff. (%)
Endpoint Name: Emax (%)

Param readout = Emax; param system = human mGlu5a receptor (Homo sapiens, UniProt P41594); param query = CC(C)(C)c1cc2ncc(C#Cc3ccccc3N)cn2n1 [Example 36] ; response: value
88

Write down the reported Emax of Cc1ccc(C#Cc2cnc3cc(C)nn3c2)cc1 [Example 7] , test system: human mGlu5a receptor (Homo sapiens, UniProt P41594).
73

Find the measured Emax: item CC(C)(C)c1nc2ncc(C#Cc3ccccc3)cn2n1 [Example 42] , target or system human mGlu5a receptor (Homo sapiens, UniProt P41594).
73

1: C(#Cc1cnc2nc(N3CCOCC3)nn2c1)c1ccccc1 [Example 47]
2: CC(C)(C)c1nc2ccc(C#Cc3ccccc3)cn2n1 [Example 39]
API: POST /compare with 1 and 2 ; response names the item with higher Emax. Could you answer with the label of the item you picked?
1
